target: PI3Kalpha (Homo sapiens, UniProt P42336); construct: purchased Upstate #14-602; assay: Cell-free kinase assay PI3K-ALPHA; type: biochemical
Sequence (P42336 whole entry): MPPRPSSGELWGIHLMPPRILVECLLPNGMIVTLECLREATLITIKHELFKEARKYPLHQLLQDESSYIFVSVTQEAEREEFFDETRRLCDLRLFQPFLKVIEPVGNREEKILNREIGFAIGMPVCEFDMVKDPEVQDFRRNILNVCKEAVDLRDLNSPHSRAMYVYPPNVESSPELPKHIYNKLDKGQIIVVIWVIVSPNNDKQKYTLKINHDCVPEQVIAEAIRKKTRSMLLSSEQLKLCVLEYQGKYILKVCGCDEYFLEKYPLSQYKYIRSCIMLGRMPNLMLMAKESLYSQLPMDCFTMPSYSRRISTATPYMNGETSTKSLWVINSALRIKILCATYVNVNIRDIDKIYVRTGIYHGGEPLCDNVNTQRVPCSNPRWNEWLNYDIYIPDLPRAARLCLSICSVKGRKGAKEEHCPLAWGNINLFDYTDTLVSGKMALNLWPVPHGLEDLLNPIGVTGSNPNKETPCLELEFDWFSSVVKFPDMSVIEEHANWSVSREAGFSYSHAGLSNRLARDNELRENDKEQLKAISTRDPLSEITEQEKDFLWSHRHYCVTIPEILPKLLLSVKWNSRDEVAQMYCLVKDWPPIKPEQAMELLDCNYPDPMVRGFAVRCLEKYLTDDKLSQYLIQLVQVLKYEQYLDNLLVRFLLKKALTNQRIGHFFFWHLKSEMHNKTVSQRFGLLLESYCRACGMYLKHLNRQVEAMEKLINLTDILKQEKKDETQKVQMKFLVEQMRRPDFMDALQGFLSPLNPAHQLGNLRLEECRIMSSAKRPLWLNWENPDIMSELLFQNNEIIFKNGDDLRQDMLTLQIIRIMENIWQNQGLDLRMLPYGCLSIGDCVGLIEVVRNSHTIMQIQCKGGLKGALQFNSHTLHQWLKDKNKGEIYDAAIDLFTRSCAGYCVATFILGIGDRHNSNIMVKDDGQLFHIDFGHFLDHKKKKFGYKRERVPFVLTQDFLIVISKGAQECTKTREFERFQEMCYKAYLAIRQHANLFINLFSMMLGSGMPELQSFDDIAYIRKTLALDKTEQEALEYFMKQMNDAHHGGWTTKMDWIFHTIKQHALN
Sequence (P27986 whole entry partner): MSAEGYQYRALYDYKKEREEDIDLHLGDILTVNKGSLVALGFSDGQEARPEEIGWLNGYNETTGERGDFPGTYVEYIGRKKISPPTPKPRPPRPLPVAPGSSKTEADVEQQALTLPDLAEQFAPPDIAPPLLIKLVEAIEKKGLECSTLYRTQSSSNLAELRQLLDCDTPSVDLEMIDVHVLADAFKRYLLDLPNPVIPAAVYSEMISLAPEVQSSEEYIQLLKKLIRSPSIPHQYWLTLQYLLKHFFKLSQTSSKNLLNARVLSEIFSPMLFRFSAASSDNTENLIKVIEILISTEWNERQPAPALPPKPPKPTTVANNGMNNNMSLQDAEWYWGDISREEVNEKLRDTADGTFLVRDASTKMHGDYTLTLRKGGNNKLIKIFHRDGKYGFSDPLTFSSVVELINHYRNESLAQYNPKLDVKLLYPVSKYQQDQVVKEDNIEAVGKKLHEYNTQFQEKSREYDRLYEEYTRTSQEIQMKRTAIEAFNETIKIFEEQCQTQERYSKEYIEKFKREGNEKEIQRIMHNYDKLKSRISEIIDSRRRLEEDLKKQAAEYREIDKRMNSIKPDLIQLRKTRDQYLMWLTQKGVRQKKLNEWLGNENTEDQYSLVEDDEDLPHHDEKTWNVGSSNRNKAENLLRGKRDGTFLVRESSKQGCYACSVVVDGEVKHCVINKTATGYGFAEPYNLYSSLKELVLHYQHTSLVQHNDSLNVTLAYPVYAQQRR
MEASURED_PROPERTY: PI3K inhibition, in words

These recorded examples may help you get a feel for the data.
CCNC(=O)Nc1ccc2ncc(-c3ccc(OC)c(O)c3)nc2n1; inhibition of PI3K
CCNC(=O)Nc1ccc2ncc(Nc3cccc(O)c3)nc2n1; PI3K inhibition
CCNC(=O)Nc1ccc2ncc(Nc3ccccc3O)nc2n1; PI3K inhibition
CCNC(=O)Nc1ccc2ncc(Nc3ccc(O)c(C(=O)OC)c3)nc2n1; PI3K inhibition
CCNC(=O)Nc1ccc2ncc(Nc3cccc(OC(F)F)c3)nc2n1; PI3K inhibition

The record that follows has no PI3K inhibition, in words shown yet.
Lookup: PI3K inhibition, in words / PI3Kalpha (Homo sapiens, UniProt P42336) / CCNC(=O)Nc1ccc2ncc(-c3ccc(OC(C)=O)c(OC)c3)nc2n1
inhibition of PI3K

====

pIC50: −log10 of the molar value.
Endpoint: pIC50. System: p38alpha (Homo sapiens). Items follow.
Sequence (Q16539 whole entry): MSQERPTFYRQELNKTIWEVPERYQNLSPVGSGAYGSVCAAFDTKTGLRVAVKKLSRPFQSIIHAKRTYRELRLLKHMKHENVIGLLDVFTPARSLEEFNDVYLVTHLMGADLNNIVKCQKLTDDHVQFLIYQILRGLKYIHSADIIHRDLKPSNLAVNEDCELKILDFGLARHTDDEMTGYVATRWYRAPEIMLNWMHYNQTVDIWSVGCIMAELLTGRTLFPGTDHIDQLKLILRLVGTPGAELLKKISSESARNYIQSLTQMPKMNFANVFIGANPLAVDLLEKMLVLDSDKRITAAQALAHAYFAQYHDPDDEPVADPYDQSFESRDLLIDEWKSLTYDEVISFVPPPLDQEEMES

COc1cc(-c2ccc3ncc(NC(=O)NC4CCCC4)nc3n2)ccc1O [Compound 20]; < 4.00
CNC(=O)Nc1cnc2ccc(-c3ccc(OC)c(OC)c3)nc2n1 [Compound 566]; < 4.50
CCNC(=O)Nc1ccc2ncc(-c3ccc(OC(C)=O)c(OC)c3)nc2n1 [Compound 54]; < 4.00
CCNC(=O)Nc1ccc2ncc(-c3ccc(OC)c(O)c3)nc2n1 [Compound 46]; < 4.00
CCNC(=O)Nc1cnc2ccc(-c3cc(C)c(O)c(C)c3)nc2n1 [Compound 181]; > 4.30

I need pIC50 for every entry listed below, if you could help.
1. COc1cc(-c2ccc3ncc(NC(=O)Nc4ccncc4)nc3n2)ccc1O [Compound 176]
2. COc1cc(-c2ccc3ncc(NC(=O)NCCCl)nc3n2)ccc1O [Compound 173]
3. COc1cc(Nc2cnc3ccc(NC(=S)NC4CCCC4)nc3n2)cc(OC)c1OC [Compound 509]
4. CCNC(=O)Nc1ccc2ncc(Nc3ccc(O)c(C(=O)OC)c3)nc2n1 [Compound 50]

> 4.30
> 4.30
< 4.00
< 4.00

====

Record form. Attribute: melting point. Fill in for each entry.

CCNC(=S)Nc1cnc2ccc(Nc3cccc(CC(=O)O)c3)nc2n1; 248 °C
CCNC(=O)Nc1ccc2ncc(-c3cccc(Cl)c3Cl)nc2n1; > 350 °C
CCNC(=O)Nc1ccc2ncc(-c3ccccc3SC)nc2n1; 182 to 185 °C
CC(C)NC(=O)Nc1cnc2ccc(-c3cc(Cl)c(O)c(Cl)c3)nc2n1; 259 to 261 °C
COc1ccc(-c2ccc3ncc(NC(=O)NC4CCN(C(=O)C(F)(F)F)CC4)nc3n2)cc1OC; 239 to 242 °C
CCNC(=O)Nc1ccc2ncc(-c3cccc4c3oc3ccccc34)nc2n1; > 300 °C
CCNC(=O)Nc1ccc2ncc(-c3cc(Cl)ccc3OC)nc2n1; 254 to 257 °C
CCNC(=O)Nc1cnc2ccc(Nc3ccc(OC)c(Cl)c3)nc2n1; 260 °C

The record that follows has no melting point shown yet.
Could you share which melting point value was measured for CCNC(=O)Nc1ccc2ncc(-c3ccccc3Cl)nc2n1 ?
310 °C

====

Record form. Attribute: melting point. Fill in for each entry.

These recorded examples may help you get a feel for the data.
CCNC(=O)Nc1cnc2ccc(-c3cc(C)c(O)c(Cl)c3)nc2n1; 266 °C
CCNC(=O)Nc1ccc2ncc(-c3ccccc3OCC(C)C)nc2n1; 179 to 181 °C
CCNC(=S)Nc1ccc2ncc(-c3cc(C)c(O)c(C)c3)nc2n1; 244 °C
CCNC(=O)Nc1ccc2ncc(-c3ccc(C)c(C)c3)nc2n1; 247 to 249 °C
CC(=O)Nc1ccc2ncc(Nc3cccc(OC(C)C)c3)nc2n1; 177 °C

I need melting point for every entry listed below, if you could help.
1. Cc1cc(-c2ccc3ncc(NC(=O)NCCc4ccccc4)nc3n2)cc(C)c1O
2. CCNC(=O)Nc1cnc2ccc(-c3ccc(O)c(Cl)c3)nc2n1
3. CCNC(=O)Nc1cnc2ccc(Nc3ccc(O)c(OC)c3)nc2n1

["267 to 269 °C", "> 270 °C", "255 °C"]

I need melting point for every entry listed below, if you could help.
1. CCNC(=O)Nc1cnc2ccc(N3CCC(O)CC3)nc2n1
2. COCCCNC(=S)Nc1ccc2ncc(Nc3cc(OC)c(OC)c(OC)c3)nc2n1
3. CCNC(=O)Nc1cnc2ccc(-c3cc(C)c(OC(C)C)c(C)c3)nc2n1

1: 249 to 251 °C; 2: 246 °C; 3: 221 °C

I need melting point for every entry listed below, if you could help.
1. CCNC(=O)Nc1ccc2ncc(-c3cc(C)cc(Br)c3)nc2n1
2. COc1cc(-c2ccc3ncc(NC(=O)Nc4ccc(Cl)cc4)nc3n2)ccc1O
3. CCNC(=O)Nc1ccc2ncc(-c3ccc(C)c([N+](=O)[O-])c3)nc2n1
4. COc1cc(-c2ccc3ncc(NC(=O)Nc4cccnc4)nc3n2)ccc1O
5. CCNC(=O)Nc1ccc2ncc(-c3cc(F)c(F)c(F)c3)nc2n1
6. CCNC(=O)Nc1ccc2ncc(Nc3cccc(Cl)c3)nc2n1
7. CCNC(=O)Nc1cnc2ccc(N3CCOCC3)nc2n1
8. CCNC(=O)Nc1cnc2ccc(-c3ccc(C(C)=O)s3)nc2n1

1. 270 to 274 °C
2. 224 to 226 °C
3. 253.3 to 256.2 °C
4. 245 to 248 °C
5. 305.4 to 307.2 °C
6. 253 °C
7. 243 to 245 °C
8. > 250 °C
